Recorded values, source the supplement of paper PMC7125110.

B1: glmS ribozyme (parent)
chain: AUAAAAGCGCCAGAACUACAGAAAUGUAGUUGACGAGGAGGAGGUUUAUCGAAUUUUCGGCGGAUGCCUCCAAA

- Variants of: B1
- experimentDescription: self-cleavage kobs at 10000 uM GlcN6P; higher = faster cleavage; RNA array
- protocolConditions: with glucosamine-6-phosphate
This sample holds only a part of the variants without activity.
readoutType: self-cleavage kobs at 10000 uM GlcN6P

AUAAAAGCGCCAGAACUACAGAAAUGUAGUUGACGAGGAGGAGGUUUAUCCGAUUUUCGGCGGAUGCCUCCAAA [G51C A52G] : < 1e-05 s⁻¹
AUAAAAGCGCCAGAACUACAGAAAUGUAGUUGACGAGCAGGAGGUUUAUCGAUUUUUCGGCGGAUGCCUCCAAA [G38C A53U] : < 1e-05 s⁻¹
AUAAAACCGCCAUAACUACAGAAAUGUAGUUGACGAGGAGGGGGUUUAUCGAAUUUUCGGCGGAUGCCUCCAAA [G7C G13U A42G] : < 1e-05 s⁻¹
AUAAAAGGGCCAUAACUACAGAAAUGUAGUUGACGAGGAGGAGGUUUAUCGAAUUUUCGGCGGAUGCCUCCAAA [C8G G13U] : < 1e-05 s⁻¹
AUAAAAGCGCCAGAACUACAGAAAUGUAGUUGACGAGGGGGAGGUUUAUCGAAUUUUCGGCGUAUGCCUCCAAA [A39G G63U] : < 1e-05 s⁻¹
AUAAAAGCGCCAGAACUACAGAAAUGUAGUUGACCAGGAGGAGGUUUAUCGAGUUUUCGGCGGAUGCCUCUAAA [G35C A53G C71U] : < 1e-05 s⁻¹
AUAAAAGCGACAGAACUACAGAAAUGUAGUUGACGUGGAGGAGGUUUAUCGAAUUUUCGGCGGAUGCGUCCAAA [C10A A36U C68G] : 6.62e-05 s⁻¹
AUAAAAGCGCCACAACUACAGAAAUGUAGUUGAUUAGGAGGAGGUUUAUCGAAUUUUCGGCGGAUGCCUCCAAA [G13C C34U G35U] : < 1e-05 s⁻¹

Looking for the measured self-cleavage kobs at 10000 uM GlcN6P of AUAAAAGCGCCAGAACUACAGAAAUGUAGUUGACGAGGUGGAGGUUUAUCGAAUUUUCGGCGGAUGCCUCAAAA [A39U C71A] , can you help?
0.0028 s⁻¹

# lookup: self-cleavage kobs at 10000 uM GlcN6P of AUAAAAGCGCCAGAACUACAGAAAUGUAGUUGACGAGGAGGAGGUUUAUCGAAGUUUCGGCGGAUGCCUCAAAA [U54G C71A]
0.00496 s⁻¹

Param item = AUAAAAGCGCCAGGACUACAGAAAUGUAGUUGACGAGGAGGAGGUUCAUCGAAUUUUCGGCGGAUGCCUCCAAA [A14G U47C] ; retrieve measured self-cleavage kobs at 10000 uM GlcN6P.
0.00833 s⁻¹

Entry AUAAAAGCUCCAGAUCUACAGAAAUGUAGUUGACGAGGAGGCGGUUUAUCGAAUUUGCGGCGGAUGCCUCCAAA [G9U A15U A42C U57G] : reported self-cleavage kobs at 10000 uM GlcN6P = ?
< 1e-05 s⁻¹

Given AUAAAAGCUCCAGAACUACAGAAAUGUAGUUGACGAGGAGGAGGUUUAUCGGAUUUUCGGCGGAUGCCUCCAAA [G9U A52G] , state its recorded self-cleavage kobs at 10000 uM GlcN6P.
< 1e-05 s⁻¹
